Species on record: Rattus norvegicus
protocol_notes: DrugMatrix - Regimen: Daily Repeat
Type: toxicity, organism-based, Sprague-Dawley
Set-up: regimen Daily Repeat, gender Male, age 6-8 weeks
particulars: in vivo, po, 0 mg/kg, 120 h, tissue Plasma, route oral GAVAGE, dose level Control, time 5 day, vehicle .5 % CMC
Give measured ALANINE AMINOTRANSFERASE for each item. Keep answers brief.
One number for each entry, in u/L.

// for each compound below, give its ALANINE AMINOTRANSFERASE
1. CC1CC(OC(=O)C(O)c2ccccc2)CC(C)(C)C1 (stereo unspecified) [CYCLANDELATE]
2. N=C(N)NCCN1CCCCCCC1
3. CN1CCN(CCCN2c3ccccc3Sc3ccc(Cl)cc32)CC1
4. COc1nc(C)nc(Cl)c1N=C1NCCN1
5. Nc1ccn([C@H]2CC[C@@H](CO)O2)c(=O)n1
6. ClC(Cl)Br

OUTPUT:
46
46
45.17
49
42.5
58.5

----------
Species on record: Rattus norvegicus
protocol_notes: DrugMatrix - Regimen: Daily Repeat
Type: toxicity, organism-based, Sprague-Dawley
Parameters: regimen Daily Repeat, gender Male, age 6-8 weeks
particulars: in vivo, po, 0 mg/kg, 72 h, tissue Plasma, route oral GAVAGE, dose level Control, time 3 day, […]
Give measured TOTAL BILIRUBIN for each item. Keep answers brief.
Answers are plain numbers, in mg/dL.

{"columns": ["molecule", "units_label", "value"],
 "data": [
  ["Cc1oncc1C(=O)Nc1ccc(C(F)(F)F)cc1 [LEFLUNOMIDE]", "mg/dL", 0.2]
]}

// for each molecule below, give its TOTAL BILIRUBIN
1. O=c1oc2ccccc2c(O)c1Cc1c(O)c2ccccc2oc1=O [DICUMAROL]
2. O=NN(CCCl)C(=O)NC1CCCCC1 [LOMUSTINE]
3. CN(C)c1nc(N(C)C)nc(N(C)C)n1 [ALTRETAMINE]
4. Cc1ccc(-c2cc(C(F)(F)F)nn2-c2ccc(S(N)(=O)=O)cc2)cc1 [CELECOXIB]
5. CC(C)(Oc1ccc(Cl)cc1)C(=O)O [CLOFIBRIC ACID]
6. O=C(O)CCCc1ccc(N(CCCl)CCCl)cc1 [CHLORAMBUCIL]
7. Cc1noc(NS(=O)(=O)c2ccc(N)cc2)c1C [SULFISOXAZOLE]

OUTPUT:
[0.2, 0.2, 0.2, 0.2, 0.23, 0.2, 0.18]

----------
Species: Rattus norvegicus
protocol_notes: DrugMatrix - Regimen: Daily Repeat
Assay type: toxicity, organism-based, Sprague-Dawley
Set-up: regimen Daily Repeat, gender Male, age 6-8 weeks
particulars: in vivo, po, 120 mg/kg, 120 h, tissue Blood, route oral GAVAGE, dose level High, time 5 day, vehicle 100 % WATER
value_type: ABSOLUTE LYMPHOCYTE (CELLS/uL)
One number for each entry, in CELLS/uL.

INPUT: Record request: ABSOLUTE LYMPHOCYTE value, item "c1ccc([C@H]2CN3CCSC3=N2)cc1"
OUTPUT: 13503

----------
Give measured MEAN CORPUSCULAR HEMOGLOBIN for each item. Keep answers brief.
Species: Rattus norvegicus
protocol_notes: DrugMatrix - Regimen: Daily Repeat
Format: toxicity, organism-based, Sprague-Dawley
Set-up: regimen Daily Repeat, gender Male, age 6-8 weeks
particulars: in vivo, po, 0 mg/kg, 72 h, tissue Blood, route oral GAVAGE, dose level Control, time 3 day, vehicle 100 % WATER
Answers are plain numbers, in pg.

Example results:
{"columns": ["molecule", "units_label", "MEAN CORPUSCULAR HEMOGLOBIN"],
 "data": [
  ["COc1cc2nc(N3CCN(C(=O)C4COc5ccccc5O4)CC3)nc(N)c2cc1OC (stereo not given)", "pg", 24.88],
  ["CN(C)CCCN1c2ccccc2Sc2ccc(Cl)cc21", "pg", 23.47],
  ["C=CCC1(C(C)CCC)C(=O)NC(=O)NC1=O (stereo not given)", "pg", 24.5],
  ["NCCCCCC(=O)O", "pg", 24.62],
  ["CC(O)CO (stereo not given)", "pg", 24.62],
  ["C[C@H]1c2cccc(O)c2C(=O)C2=C(O)[C@]3(O)C(=O)C(C(N)=O)=C(O)[C@@H](N(C)C)[C@@H]3[C@@H](O)[C@@H]21.O", "pg", 24.88]
]}

// for each molecule below, give its MEAN CORPUSCULAR HEMOGLOBIN
1. Nc1c2c(nc3ccccc13)CCCC2
2. Clc1cccc(Cl)c1N=C1NCCN1
3. CNNCc1ccc(C(=O)NC(C)C)cc1
4. c1ccc([C@H]2CN3CCSC3=N2)cc1

OUTPUT:
1. 24.38
2. 23.62
3. 24.12
4. 24.42

Taken from ChEMBL document CHEMBL3885881.
